AC50 overview
molecular target: Cytochrome P450 2C9 (Homo sapiens)
Sequence (P11712 whole entry): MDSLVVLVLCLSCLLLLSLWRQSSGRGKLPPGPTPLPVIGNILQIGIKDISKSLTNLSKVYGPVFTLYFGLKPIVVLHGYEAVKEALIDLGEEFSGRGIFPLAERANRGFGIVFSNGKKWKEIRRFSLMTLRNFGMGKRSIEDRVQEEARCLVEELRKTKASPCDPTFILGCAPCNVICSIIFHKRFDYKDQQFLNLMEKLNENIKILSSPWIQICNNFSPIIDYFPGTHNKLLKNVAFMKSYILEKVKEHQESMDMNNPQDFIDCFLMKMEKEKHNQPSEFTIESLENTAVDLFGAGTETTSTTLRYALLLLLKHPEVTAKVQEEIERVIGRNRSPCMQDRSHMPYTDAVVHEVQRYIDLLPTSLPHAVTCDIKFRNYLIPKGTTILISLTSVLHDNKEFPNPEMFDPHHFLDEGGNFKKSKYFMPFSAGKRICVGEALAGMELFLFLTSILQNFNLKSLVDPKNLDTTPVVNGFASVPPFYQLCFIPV

A selection of reference data follows.
COc1ccc(-c2nnc3n2N=C(C)CS3)cc1 | 20 µM (inconclusive)
CCCC(c1cc(C(C)(C)C)c(O)cc1C)c1cc(C(C)(C)C)c(O)cc1C | 3.16 µM (inconclusive)
O=C(CCc1ccccc1)NCc1cccnc1 | 1 µM (inconclusive)
CC(=O)/N=c1\sccn1CC(=O)c1ccc([N+](=O)[O-])cc1 | 0.0794 µM (inconclusive)
O=C(N[C@@H](c1ccccc1)[C@@H]1C[C@H]1C(=O)NCc1ccccn1)OCc1ccccc1 | 20 µM (inconclusive)

Record O=C(Nc1cccc(-c2cnc3ccccc3n2)c1)c1ccc(Cl)cc1 has Cytochrome P450 2C9 (Homo sapiens) AC50 equal to 1.78 µM (inconclusive)

Record O=c1c(-c2ccccc2)nc2cncnc2n1Cc1ccccc1Cl has Cytochrome P450 2C9 (Homo sapiens) AC50 equal to 3.16 µM (inconclusive)

Record CC(C)(C)NC(=O)NC(=O)CSc1nnc2ccccn12 has Cytochrome P450 2C9 (Homo sapiens) AC50 equal to 17.8 µM (inconclusive)

Record COc1ccc(CC(=O)Nc2ccc(-c3nnc(-c4ccccc4)o3)cc2)cc1 has Cytochrome P450 2C9 (Homo sapiens) AC50 equal to 0.224 µM (inconclusive)

Record COc1ccc(C(C(=O)NC2CCCC2)N(C(=O)c2snc(-c3ccc(F)cc3)c2N)c2ccccc2)cc1 (stereo not given) has Cytochrome P450 2C9 (Homo sapiens) AC50 equal to 0.891 µM (inconclusive)

Record CN1C(=O)c2ccccc2C(C(=O)O)C1c1cn(C)c2ccccc12 (stereo not given) has Cytochrome P450 2C9 (Homo sapiens) AC50 equal to 10 µM (inconclusive)
